Hello, the source for this data is patent US10696638B2, in case you need it.

studyTarget: UniProt O75116
Sequence (O75116 whole entry, species assumed): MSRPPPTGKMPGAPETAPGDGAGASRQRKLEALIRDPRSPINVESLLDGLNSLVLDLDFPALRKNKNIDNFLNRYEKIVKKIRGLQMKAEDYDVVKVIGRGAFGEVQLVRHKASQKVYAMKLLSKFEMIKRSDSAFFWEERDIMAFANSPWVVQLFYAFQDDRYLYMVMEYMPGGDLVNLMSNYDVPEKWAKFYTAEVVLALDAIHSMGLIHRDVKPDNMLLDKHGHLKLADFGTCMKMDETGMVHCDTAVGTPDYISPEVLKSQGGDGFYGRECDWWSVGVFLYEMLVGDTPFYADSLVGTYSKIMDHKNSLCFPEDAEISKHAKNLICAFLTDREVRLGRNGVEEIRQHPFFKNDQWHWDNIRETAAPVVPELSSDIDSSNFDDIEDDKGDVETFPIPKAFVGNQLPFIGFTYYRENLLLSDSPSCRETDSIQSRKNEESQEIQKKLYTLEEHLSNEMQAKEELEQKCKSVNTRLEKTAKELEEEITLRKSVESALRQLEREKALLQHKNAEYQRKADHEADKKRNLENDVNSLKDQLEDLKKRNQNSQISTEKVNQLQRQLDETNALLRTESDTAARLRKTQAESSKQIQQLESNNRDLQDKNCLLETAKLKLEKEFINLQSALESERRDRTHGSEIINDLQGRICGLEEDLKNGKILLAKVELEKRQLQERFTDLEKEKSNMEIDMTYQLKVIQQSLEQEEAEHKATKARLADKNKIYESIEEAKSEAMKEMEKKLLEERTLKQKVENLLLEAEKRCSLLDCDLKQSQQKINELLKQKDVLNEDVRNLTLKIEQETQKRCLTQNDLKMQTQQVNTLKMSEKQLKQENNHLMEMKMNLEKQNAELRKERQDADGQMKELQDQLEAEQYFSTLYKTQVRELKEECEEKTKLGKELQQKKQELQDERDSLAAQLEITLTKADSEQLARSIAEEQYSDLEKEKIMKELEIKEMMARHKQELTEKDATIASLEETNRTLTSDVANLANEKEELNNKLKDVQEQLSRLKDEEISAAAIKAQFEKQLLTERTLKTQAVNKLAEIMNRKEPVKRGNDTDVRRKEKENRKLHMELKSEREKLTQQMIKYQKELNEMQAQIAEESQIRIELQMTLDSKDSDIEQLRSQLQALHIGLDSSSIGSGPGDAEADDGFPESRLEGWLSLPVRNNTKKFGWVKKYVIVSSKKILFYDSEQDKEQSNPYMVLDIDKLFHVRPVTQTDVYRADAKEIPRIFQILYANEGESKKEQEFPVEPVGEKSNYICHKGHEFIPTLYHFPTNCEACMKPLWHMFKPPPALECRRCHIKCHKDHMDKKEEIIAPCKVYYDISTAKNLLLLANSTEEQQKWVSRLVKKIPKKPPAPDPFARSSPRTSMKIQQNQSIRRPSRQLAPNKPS
experimentalDetails: Rho-kinase inhibition ELISA (ROCK active-II, MYPT1 substrate)
Format: biochemical
appliedConditions: Table 1; classes given as pIC50; ATP 250 μM; read-out: ROCK2 IC50
endpoint: IC50

CN(C)CCN(Cc1ccc(Cl)cc1)C(=O)Nc1ccc2cnccc2c1 ... 10 to 100 nM

Q: Tell me measured IC50 for CN(C)CCN(Cc1cccc(F)c1)C(=O)Nc1ccc2cnccc2c1 please.
A: 100 to 1000 nM

Q: Find the measured IC50 of O=C(Nc1ccc2cnccc2c1)N[C@@H](CO)c1ccccc1 and report it.
A: 10 to 100 nM

Q: Tell me its IC50 given COc1cccc(CN(CCO)C(=O)Nc2ccc3cnccc3c2)c1 as the entry.
A: 100 to 1000 nM

Q: Report IC50, nothing else, for this compound: CN(C)CCN(Cc1ccc(F)cc1)C(=O)Nc1ccc2cnccc2c1
A: 10 to 100 nM

Q: Identify the reported IC50 for the following entry. COc1cccc(CN(CCN(C)C)C(=O)Nc2ccc3cnccc3c2)c1
A: 100 to 1000 nM
